- Test system: Mus musculus
- assay.notes: Compound was tested for antifungal activity by measuring systemic candidosis in mice on 7th day upon single peroral administration
- Format: functional
- run.parameters: po
As shown below, each of these compounds has a reported ED50 value.
Numeric only. Scale: mg/kg

Study these solved cases before continuing.
[
  {
    "compound": "COC1[C@@H](Cn2cncn2)[C@H](COc2ccc(OC(C)(C)C)cc2)CC[C@@]1(C)CCS(C)(=O)=O (some centres undefined)",
    "reported.measurement": 50
  },
  {
    "compound": "COC1[C@@H](Cn2cncn2)[C@H](COc2ccc(OC(C)(C)C)cc2)CC[C@@]1(C)CCn1ccnc1 (some centres undefined)",
    "reported.measurement": 50
  },
  {
    "compound": "COC1[C@@H](Cn2cncn2)[C@H](COc2ccc(OC(C)(C)C)cc2)CC[C@@]1(C)CCN1CCOCC1 (some centres undefined)",
    "reported.measurement": 50
  },
  {
    "compound": "CO[C@@H]1[C@@H](Cn2cncn2)[C@H](COc2ccc(OC(C)(C)C)cc2)CC[C@@]1(C)CCSc1nccn1C",
    "reported.measurement": 50
  }
]

Query string: Annotate the compound OC(Cn1cncn1)(Cn1cncn1)c1ccc(F)cc1F with its measured ED50.
Result string: 5.4
